Target: human blood AChE (Homo sapiens)
Construct: 90 µL undiluted blood in a 48-wells plate; from tissue; host or cells: venous EDTA whole blood from healthy human donors, lysed and diluted in Triton X-100 buffer
Sequence (P22303 32-617 isoform P22303-2 limits assumed): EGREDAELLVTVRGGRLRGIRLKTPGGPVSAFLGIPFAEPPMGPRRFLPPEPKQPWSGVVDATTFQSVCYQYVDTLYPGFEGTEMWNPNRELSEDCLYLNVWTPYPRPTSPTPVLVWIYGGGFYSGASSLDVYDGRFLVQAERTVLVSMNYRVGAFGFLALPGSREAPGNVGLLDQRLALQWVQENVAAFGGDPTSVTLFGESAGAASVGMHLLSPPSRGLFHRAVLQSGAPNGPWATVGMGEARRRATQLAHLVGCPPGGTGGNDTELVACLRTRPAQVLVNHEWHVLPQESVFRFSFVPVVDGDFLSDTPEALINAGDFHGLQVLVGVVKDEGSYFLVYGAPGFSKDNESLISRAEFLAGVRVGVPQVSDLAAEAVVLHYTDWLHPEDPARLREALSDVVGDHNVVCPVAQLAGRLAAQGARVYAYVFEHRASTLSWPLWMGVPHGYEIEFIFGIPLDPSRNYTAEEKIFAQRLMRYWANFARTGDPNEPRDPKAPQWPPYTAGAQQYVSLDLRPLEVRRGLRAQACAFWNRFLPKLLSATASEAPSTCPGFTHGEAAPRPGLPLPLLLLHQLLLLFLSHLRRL
Assay: AChE inhibition in human donor whole blood (Ellman method)
Format: biochemical
Settings: IC50 Value, donor 19
Observable: pIC50
FYI, pIC50 means -log10 of a concentration in mol per litre.

What does the record list as pIC50 for Cc1nc(N(C)C)nc(OC(=O)N(C)C)c1C ? 4.55

----------
Target: human blood AChE (Homo sapiens)
Construct: 90 µL undiluted blood in a 48-wells plate; from tissue; host or cells: venous EDTA whole blood from healthy human donors, lysed and diluted in Triton X-100 buffer
Assay: AChE inhibition in human donor whole blood (Ellman method)
Format: biochemical
Details: IC50 Value, donor 2
Observable: IC50

What does the record list as IC50 for Cc1nc(N(C)C)nc(OC(=O)N(C)C)c1C ? 19 µM
